Target: CYP26B1 (Homo sapiens (Human), UniProt Q9NR63)
Sequence (Q9NR63 whole entry): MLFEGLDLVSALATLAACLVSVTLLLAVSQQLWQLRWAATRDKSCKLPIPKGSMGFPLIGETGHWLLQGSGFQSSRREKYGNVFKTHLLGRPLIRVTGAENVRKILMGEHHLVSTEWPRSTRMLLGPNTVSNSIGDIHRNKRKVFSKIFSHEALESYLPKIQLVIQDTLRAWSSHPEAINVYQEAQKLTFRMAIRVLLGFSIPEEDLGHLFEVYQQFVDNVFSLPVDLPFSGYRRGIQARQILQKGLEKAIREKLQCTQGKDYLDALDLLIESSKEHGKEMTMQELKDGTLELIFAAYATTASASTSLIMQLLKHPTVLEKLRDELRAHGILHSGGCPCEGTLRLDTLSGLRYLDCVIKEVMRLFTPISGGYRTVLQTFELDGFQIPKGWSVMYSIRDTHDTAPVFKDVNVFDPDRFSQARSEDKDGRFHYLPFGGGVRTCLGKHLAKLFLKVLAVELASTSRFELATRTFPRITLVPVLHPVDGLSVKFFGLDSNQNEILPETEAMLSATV
Test: CYP26B1 inhibition assay (9-cis-4-OH-RA formation from 9-cis-RA, recombinant microsomes)
Type: biochemical
Settings: Table 5; read-out: CYP26B1
pIC50: −log10 of the molar value.
Please note: true applies when pIC50 is 7 or greater, and false applies otherwise.

The following compounds have reported results that may help.
INSERT INTO assay_data (compound, class_name) VALUES
  ('COc1ccc(-c2ccc(/C=C/C(=O)O)cc2)cc1C12CC3CC(CC(C3)C1)C2', 'false'),
  ('CC1(C)CCC(C)(C)c2cc(Cc3ccc(CCC(=O)O)cc3)ccc21', 'false'),
  ('Clc1cccc(C(c2ccc3[nH]cnc3c2)n2ccnc2)c1 (stereo not shown)', 'true'),
  ('O=C(O)CCc1ccc(-c2ccc(O)c(C34CC5CC(CC(C5)C3)C4)c2)cc1', 'false'),
  ('CCC(CC)[C@H](c1ccc(Nc2nc3ccccc3s2)cc1)n1cncn1', 'true'),
  ('COc1ccc(-c2ccc(CCC(=O)O)cc2)cc1C12CC3CC(CC(C3)C1)C2', 'false');

Query :: // inclusive: pIC50 at least 7? input: CC1(C)CCC(C)(C)c2cc(C3(c4ccc(/C=C/C(=O)O)cc4)OCCO3)ccc21
Result :: false

Query :: // inclusive: pIC50 at least 7? input: CC1(C)CCC(C)(C)c2cc(C3(c4ccc(CCC(=O)O)cc4)OCCO3)ccc21
Result :: false

Query :: // inclusive: pIC50 at least 7? input: COc1ccc(Nc2ccc(CCC(=O)O)cc2)cc1C12CC3CC(CC(C3)C1)C2
Result :: true

Query :: // inclusive: pIC50 at least 7? input: CC1(C)CCC(C)(C)c2cc(C3(c4ccc(/C=C/C(=O)O)cc4)SCCS3)ccc21
Result :: false
